SYSTEM NAME: Mitogen-activated protein kinase 11 (Homo sapiens)
METHOD DESCRIPTION: Inhibition of Mitogen-activated protein kinase p38 beta at 1 uM
REPORTED METRIC: inhibition
Provide the measurement as a number trailed by its unit.

Completed entries (count: 3):
Fc1ccc(-c2ncn(C3CCNCC3)c2-c2ccncc2)cc1; 59%
Cc1cc(F)ccc1Nc1ccc(C(=O)c2ccccc2C)c(Cl)c1; 92%
Cc1ccccc1C(=O)c1ccc(Nc2ccccc2N)cc1Cl; 93%

Give the measured inhibition of `Cc1ccccc1C(=O)c1ccc(Nc2ccc(Br)cc2N)cc1Cl` .
93%

---

A collection of compounds and their measured inhibition
SYSTEM NAME: Mitogen-activated protein kinase 14 (Homo sapiens)
METHOD DESCRIPTION: Inhibition of Mitogen-activated protein kinase p38 alpha at 1 uM
Unit % implied. Number only.

Completed entries (count: 3):
Fc1ccc(-c2ncn(C3CCNCC3)c2-c2ccncc2)cc1 [VK-19911]; 73
Cc1ccccc1C(=O)c1ccc(Nc2ccc(Br)cc2N)cc1Cl; 82
Cc1ccccc1C(=O)c1ccc(Nc2ccccc2N)cc1Cl; 88

Please examine the following record next.
Please tell me: inhibition of `Cc1cc(F)ccc1Nc1ccc(C(=O)c2ccccc2C)c(Cl)c1` , system Mitogen-activated protein kinase 14 (Homo sapiens)?
88

---

A collection of molecules and their measured inhibition
SYSTEM NAME: Mitogen-activated protein kinase 13 (Homo sapiens) (UniProt O15264)
Sequence (O15264 whole entry): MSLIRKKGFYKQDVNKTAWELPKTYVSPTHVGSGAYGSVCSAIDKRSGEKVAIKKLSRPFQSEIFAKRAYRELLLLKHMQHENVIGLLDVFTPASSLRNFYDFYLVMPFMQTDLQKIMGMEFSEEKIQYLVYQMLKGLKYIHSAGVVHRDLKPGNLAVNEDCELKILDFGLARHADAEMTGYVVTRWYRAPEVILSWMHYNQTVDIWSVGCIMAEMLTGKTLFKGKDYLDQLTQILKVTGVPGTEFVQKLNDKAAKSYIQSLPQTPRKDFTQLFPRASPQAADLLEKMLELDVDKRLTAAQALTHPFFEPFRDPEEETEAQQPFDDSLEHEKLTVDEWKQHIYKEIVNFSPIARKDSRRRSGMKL
METHOD DESCRIPTION: Inhibition of Mitogen-activated protein kinase p38 delta at 1 uM
Unit % implied. Number only.

Completed entries (count: 3):
Cc1ccccc1C(=O)c1ccc(Nc2ccccc2N)cc1Cl; 8
Fc1ccc(-c2ncn(C3CCNCC3)c2-c2ccncc2)cc1 [VK-19911]; 8
Cc1cc(F)ccc1Nc1ccc(C(=O)c2ccccc2C)c(Cl)c1; 4

Please examine the following record next.
Please tell me: inhibition of `Cc1ccccc1C(=O)c1ccc(Nc2ccc(Br)cc2N)cc1Cl` , system Mitogen-activated protein kinase 13 (Homo sapiens) (UniProt O15264)?
0

---

SYSTEM NAME: MAP kinase p38 (Homo sapiens, UniProt O15264+Q15759+Q16539+P53778)
METHOD DESCRIPTION: In vitro inhibition of TNF-alpha release from LPS stimulated human peripheral blood mononuclear cells.
Type: functional
REPORTED METRIC: log10 IC50 (log10 of the value in µM)
Heads up, the numbers here are log10 of IC50 in µM units.

CC(=O)Nc1ccccc1Nc1ccc(C(=O)c2ccccc2C)c(Cl)c1; -2.00

Give the measured log10 IC50 of `Cc1ccccc1C(=O)c1ccc(N(C)c2ccccc2N)cc1Cl` .
-1.36

Give the measured log10 IC50 of `Cc1ccccc1C(=O)c1ccc(Nc2ccccc2N)cc1` .
-1.33

Give the measured log10 IC50 of `Nc1ccccc1Nc1ccc(C(=O)c2ccccc2)cc1` .
-0.80

Give the measured log10 IC50 of `COc1ccccc1C(=O)c1ccc(Nc2ccccc2N)cc1Cl` .
-1.70

Give the measured log10 IC50 of `Cc1ccccc1C(=O)c1ccc(Nc2ccccc2N)cc1C` .
-2.10

Give the measured log10 IC50 of `Cc1ccccc1C(=O)c1ccc(Nc2ccccc2N)cc1Cl` .
-2.22

Give the measured log10 IC50 of `Cc1ccccc1C(=O)c1ccc(Nc2ccccc2)cc1Cl` .
-1.62

Give the measured log10 IC50 of `Nc1ccccc1Nc1ccc(C(=O)c2ccccc2)c(Cl)c1` .
-0.67

Give the measured log10 IC50 of `Cc1ccccc1C(=O)c1ccc(Nc2ccc(Br)cc2N)cc1Cl` .
-2.30

Give the measured log10 IC50 of `Cc1cc(F)ccc1Nc1ccc(C(=O)c2ccccc2C)c(Cl)c1` .
-2.40

---

SYSTEM NAME: Mitogen-activated protein kinase 14 (Homo sapiens, UniProt Q16539)
Sequence (Q16539 whole entry): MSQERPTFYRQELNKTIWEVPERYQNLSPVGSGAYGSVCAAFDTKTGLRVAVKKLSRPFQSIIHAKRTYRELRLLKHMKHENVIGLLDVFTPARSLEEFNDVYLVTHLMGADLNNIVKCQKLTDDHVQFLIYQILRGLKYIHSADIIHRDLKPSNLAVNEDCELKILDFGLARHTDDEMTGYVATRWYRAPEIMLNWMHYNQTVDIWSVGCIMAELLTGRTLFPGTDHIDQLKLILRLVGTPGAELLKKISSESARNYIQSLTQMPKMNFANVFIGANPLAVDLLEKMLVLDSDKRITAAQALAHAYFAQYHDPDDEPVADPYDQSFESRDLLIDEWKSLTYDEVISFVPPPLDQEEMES
METHOD DESCRIPTION: In vitro inhibitory activity determined against human mitogen-activated protein kinase p38 alpha
REPORTED METRIC: IC50 (nM)
Unit nM implied. Number only.

Completed entries (count: 3):
Nc1ccccc1Nc1ccc(C(=O)c2ccccc2-c2ccccc2)cc1; 811
Cc1ccccc1C(=O)c1ccc(N(C)c2ccccc2N)cc1Cl; 101
Nc1ccccc1Nc1ccc(C(=O)c2ccccc2Br)cc1; 54

Please examine the following record next.
Give the measured IC50 of `Cc1cc(C(=O)c2ccccc2C)ccc1Nc1ccccc1N` .
143

---

SYSTEM NAME: MAP kinase p38 (Homo sapiens, UniProt O15264+Q15759+Q16539+P53778)
METHOD DESCRIPTION: In vitro inhibition of IL1-beta release from LPS stimulated human peripheral blood mononuclear cells.
Type: functional
A collection of molecules and their measured IC50
Unit nM implied. Number only.

Completed entries (count: 6):
Nc1ccccc1Nc1ccc(C(=O)c2ccccc2Br)cc1; 45
Nc1ccccc1Nc1ccc(C(=O)c2ccccc2)c(Cl)c1; 437
Cc1cc(F)ccc1Nc1ccc(C(=O)c2ccccc2C)c(Cl)c1; 17
CC(=O)Nc1ccccc1Nc1ccc(C(=O)c2ccccc2C)c(Cl)c1; 21
CCNC(=O)Nc1ccccc1Nc1ccc(C(=O)c2ccccc2C)c(Cl)c1; 9
Cc1cccc(C(=O)c2ccc(Nc3ccccc3N)cc2)c1; 580

Give the measured IC50 of `Cc1ccccc1Nc1ccc(C(=O)c2ccccc2C)c(Cl)c1` .
26

Give the measured IC50 of `O=C(c1ccccc1)c1ccc(Nc2ccccc2)cc1` .
175

Give the measured IC50 of `CCOC(=O)Nc1ccccc1Nc1ccc(C(=O)c2ccccc2C)c(Cl)c1` .
16

Give the measured IC50 of `Nc1ccccc1Nc1ccc(C(=O)c2ccccc2)cc1` .
226

Give the measured IC50 of `Cc1ccccc1C(=O)c1ccc(Nc2ccc(Br)cc2N)cc1Cl` .
30

---

A collection of compounds and their measured inhibition
SYSTEM NAME: Mitogen-activated protein kinase; ERK1/ERK2 (Homo sapiens) (UniProt P27361+P28482)
Sequence (P27361 whole entry, looked up): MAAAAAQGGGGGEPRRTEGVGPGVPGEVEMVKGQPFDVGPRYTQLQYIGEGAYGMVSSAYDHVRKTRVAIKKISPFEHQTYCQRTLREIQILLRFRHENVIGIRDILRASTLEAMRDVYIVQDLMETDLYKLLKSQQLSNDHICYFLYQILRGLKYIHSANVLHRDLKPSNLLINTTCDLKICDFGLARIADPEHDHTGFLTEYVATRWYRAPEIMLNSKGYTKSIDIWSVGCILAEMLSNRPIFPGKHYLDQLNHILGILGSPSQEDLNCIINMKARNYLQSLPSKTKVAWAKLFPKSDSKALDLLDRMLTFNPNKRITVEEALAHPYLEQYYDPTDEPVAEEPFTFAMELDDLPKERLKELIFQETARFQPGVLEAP
Sequence (P28482 whole entry, looked up): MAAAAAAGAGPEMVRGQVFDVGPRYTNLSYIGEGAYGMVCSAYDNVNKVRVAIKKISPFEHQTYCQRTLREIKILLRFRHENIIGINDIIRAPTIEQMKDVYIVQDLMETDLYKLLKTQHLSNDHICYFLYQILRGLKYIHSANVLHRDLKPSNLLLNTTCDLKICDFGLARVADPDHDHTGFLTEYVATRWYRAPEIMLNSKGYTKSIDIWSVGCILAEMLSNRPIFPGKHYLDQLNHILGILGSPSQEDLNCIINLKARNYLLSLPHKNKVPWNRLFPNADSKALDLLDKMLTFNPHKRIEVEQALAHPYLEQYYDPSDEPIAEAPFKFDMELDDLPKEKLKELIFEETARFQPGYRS
METHOD DESCRIPTION: Inhibition of Mitogen-activated protein kinase 3/Mitogen-activated protein kinase 1 (ERK) at 10 uM
Type: protein assay
Unit % implied. Number only.

Completed entries (count: 3):
Cc1ccccc1C(=O)c1ccc(Nc2ccccc2N)cc1Cl; 20
Fc1ccc(-c2ncn(C3CCNCC3)c2-c2ccncc2)cc1; 0
Cc1ccccc1C(=O)c1ccc(Nc2ccc(Br)cc2N)cc1Cl; 0

Give the measured inhibition of `Cc1cc(F)ccc1Nc1ccc(C(=O)c2ccccc2C)c(Cl)c1` .
0

---

SYSTEM NAME: Mitogen-activated protein kinase 12 (Homo sapiens)
Sequence (whole entry): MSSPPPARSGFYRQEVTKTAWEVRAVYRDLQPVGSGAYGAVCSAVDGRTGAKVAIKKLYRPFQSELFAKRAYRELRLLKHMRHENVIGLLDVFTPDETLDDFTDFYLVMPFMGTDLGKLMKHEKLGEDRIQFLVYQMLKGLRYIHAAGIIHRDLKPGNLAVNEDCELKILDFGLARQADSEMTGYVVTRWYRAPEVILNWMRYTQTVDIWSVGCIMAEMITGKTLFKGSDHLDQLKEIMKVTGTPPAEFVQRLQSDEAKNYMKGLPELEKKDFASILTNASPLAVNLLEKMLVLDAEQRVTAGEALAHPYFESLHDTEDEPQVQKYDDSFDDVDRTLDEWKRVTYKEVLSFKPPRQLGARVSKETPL
METHOD DESCRIPTION: Inhibition of Mitogen-activated protein kinase p38 gamma at 1 uM
A collection of molecules and their measured inhibition
Unit % implied. Number only.

Completed entries (count: 3):
Cc1cc(F)ccc1Nc1ccc(C(=O)c2ccccc2C)c(Cl)c1; 5
Fc1ccc(-c2ncn(C3CCNCC3)c2-c2ccncc2)cc1; 0
Cc1ccccc1C(=O)c1ccc(Nc2ccccc2N)cc1Cl; 0

Please examine the following record next.
Give the measured inhibition of `Cc1ccccc1C(=O)c1ccc(Nc2ccc(Br)cc2N)cc1Cl` .
0

---

SYSTEM NAME: MAP kinase p38 (Homo sapiens, UniProt O15264+Q15759+Q16539+P53778)
METHOD DESCRIPTION: In vitro inhibition of TNF-alpha release from LPS stimulated human peripheral blood mononuclear cells.
Format: functional
Records here are stratified by IC50; strata: I: < 10 nM; II: ≥ 10 nM and < 400 nM; III: ≥ 400 nM

Previously resolved entries follow.
C=C(c1ccccc1C)c1ccc(Nc2ccccc2N)cc1Cl; III
CCOC(=O)Nc1ccccc1Nc1ccc(C(=O)c2ccccc2C)c(Cl)c1; I
O=C(c1ccccc1)c1ccc(Nc2ccccc2)cc1; III
Cc1ccccc1Nc1ccc(C(=O)c2ccccc2C)c(Cl)c1; II
Cc1cc(C(=O)c2ccccc2C)ccc1Nc1ccccc1N; II
CCNC(=O)Nc1ccccc1Nc1ccc(C(=O)c2ccccc2C)c(Cl)c1; I

Categorize the following entry: `Cc1ccccc1C(=O)c1ccc(Nc2ccccc2[N+](=O)[O-])cc1Cl`
II

Categorize the following entry: `Nc1ccccc1Nc1ccc(C(=O)c2ccccc2-c2ccccc2)cc1`
III

Categorize the following entry: `Cc1ccccc1Cc1ccc(Nc2ccc(F)cc2N)cc1Cl`
III

Categorize the following entry: `Cc1cccc(C(=O)c2ccc(Nc3ccccc3N)cc2)c1`
III

Categorize the following entry: `Nc1ccccc1Nc1ccc(C(=O)c2ccccc2Br)cc1`
II
